test system: Staphylococcus aureus; experiment: Antibacterial activity against Staphylococcus aureus DSM11822 assessed as growth inhibition by measuring minimal concentration at OD600 by visual inspection with iron-limited media incubated for 24 hrs; type: functional
METRIC: MIC (µM)
Express it in µM; write the number only.

A selection of reference data follows.
Problem: Given CC1(C)S[C@@H]2[C@H](NC(=O)[C@H](NC(=O)CCn3cc(CCCC(=O)Nc4c(CNC(=O)c5cccc(O)c5O)cc(CNC(=O)c5cccc(O)c5O)cc4CNC(=O)c4cccc(O)c4O)nn3)c3ccccc3)C(=O)N2[C@H]1C(=O)O , respond with its MIC.
Solution: 5.3

Problem: Given CC(=O)Oc1cccc(C(=O)NCc2cc(CNC(=O)c3cccc(OC(C)=O)c3OC(C)=O)c(NC(=O)CCCc3cn(CCC(=O)N[C@@H](C(=O)N[C@@H]4C(=O)N5[C@@H]4SC(C)(C)[C@@H]5C(=O)O)c4ccccc4)nn3)c(CNC(=O)c3cccc(OC(C)=O)c3OC(C)=O)c2)c1OC(C)=O , respond with its MIC.
Solution: 0.12

Problem: Given CCCCCCCCCC(=O)N[C@@H](Cc1c[nH]c2ccccc12)C(=O)N[C@H](CC(N)=O)C(=O)N[C@@H](CC(=O)O)C(=O)N[C@@H]1C(=O)NCC(=O)N[C@@H](CCCNC(=O)CCCCCn2cc(CCCC(=O)Nc3c(CNC(=O)c4cccc(O)c4O)cc(CNC(=O)c4cccc(O)c4O)cc3CNC(=O)c3cccc(O)c3O)nn2)C(=O)N[C@@H](CC(=O)O)C(=O)N[C@H](C)C(=O)N[C@@H](CC(=O)O)C(=O)NCC(=O)N[C@H](CO)C(=O)N[C@@H]([C@@H](C)CC(=O)O)C(=O)N[C@@H](CC(=O)c2ccccc2N)C(=O)O[C@@H]1C , respond with its MIC.
Solution: 8.7

---
Problem: Given CCCCCCCCCC(=O)N[C@@H](Cc1c[nH]c2ccccc12)C(=O)N[C@H](CC(N)=O)C(=O)N[C@@H](CC(=O)O)C(=O)N[C@@H]1C(=O)NCC(=O)N[C@@H](CCCN)C(=O)N[C@@H](CC(=O)O)C(=O)N[C@H](C)C(=O)N[C@@H](CC(=O)O)C(=O)NCC(=O)N[C@H](CO)C(=O)N[C@@H]([C@H](C)CC(=O)O)C(=O)N[C@@H](CC(=O)c2ccccc2N)C(=O)O[C@@H]1C , respond with its MIC.
Solution: 0.36
